experimental.system: ATP-dependent translocase ABCB1 (Homo sapiens)
measurement.notes: Inhibition of human ABCB1 expressed in mouse L5178Y cells assessed as increase in rhodamine-123 accumulation by measuring side scatter count of cells at 20 uM pretreated for 10 mins followed by rhodamine-123 addition after 20 mins by flow cytometry (reference value: 903)
Type: cell-based
reported.property: Activity
Hey, just send me the number, nothing else.

Indicate its recorded Activity; the compound in question is CC[C@H]1CN(C)[C@H]2Cc3c([nH]c4ccccc34)/C(=N/Nc3ccccc3)C[C@H]1[C@@H]2C(=O)OC
1071

Next:
Indicate its recorded Activity; the compound in question is CC[C@H]1CN(C)[C@H]2Cc3c([nH]c4ccccc34)C(=O)C[C@H]1[C@@H]2C(=O)OC
1098

Indicate its recorded Activity; the compound in question is C/C=C/C(=O)O[C@H]1C[C@@H]2[C@@H](CC)CN(C)[C@@H](Cc3c1[nH]c1ccccc31)[C@H]2C(=O)OC
1213

Indicate its recorded Activity; the compound in question is CC[C@@H]1CN(C)[C@H]2Cc3c([nH]c4ccccc34)/C(=N/N)C[C@H]1[C@@H]2C(=O)OC
918

Indicate its recorded Activity; the compound in question is CC[C@H]1CN(C)[C@H]2Cc3c([nH]c4ccccc34)/C(=N/Nc3cnccn3)C[C@H]1[C@@H]2C(=O)OC
1038

Indicate its recorded Activity; the compound in question is CC[C@@H]1CN(C)[C@H]2Cc3c([nH]c4ccccc34)/C(=N/O)C[C@H]1[C@@H]2C(=O)OC
781

Indicate its recorded Activity; the compound in question is CC[C@@H]1CN(C)[C@H]2Cc3c([nH]c4ccccc34)C(=O)C[C@H]1[C@@H]2C(=O)OC
1033

###

experimental.system: ATP-dependent translocase ABCB1 (Homo sapiens, UniProt P08183)
Sequence (P08183 whole entry): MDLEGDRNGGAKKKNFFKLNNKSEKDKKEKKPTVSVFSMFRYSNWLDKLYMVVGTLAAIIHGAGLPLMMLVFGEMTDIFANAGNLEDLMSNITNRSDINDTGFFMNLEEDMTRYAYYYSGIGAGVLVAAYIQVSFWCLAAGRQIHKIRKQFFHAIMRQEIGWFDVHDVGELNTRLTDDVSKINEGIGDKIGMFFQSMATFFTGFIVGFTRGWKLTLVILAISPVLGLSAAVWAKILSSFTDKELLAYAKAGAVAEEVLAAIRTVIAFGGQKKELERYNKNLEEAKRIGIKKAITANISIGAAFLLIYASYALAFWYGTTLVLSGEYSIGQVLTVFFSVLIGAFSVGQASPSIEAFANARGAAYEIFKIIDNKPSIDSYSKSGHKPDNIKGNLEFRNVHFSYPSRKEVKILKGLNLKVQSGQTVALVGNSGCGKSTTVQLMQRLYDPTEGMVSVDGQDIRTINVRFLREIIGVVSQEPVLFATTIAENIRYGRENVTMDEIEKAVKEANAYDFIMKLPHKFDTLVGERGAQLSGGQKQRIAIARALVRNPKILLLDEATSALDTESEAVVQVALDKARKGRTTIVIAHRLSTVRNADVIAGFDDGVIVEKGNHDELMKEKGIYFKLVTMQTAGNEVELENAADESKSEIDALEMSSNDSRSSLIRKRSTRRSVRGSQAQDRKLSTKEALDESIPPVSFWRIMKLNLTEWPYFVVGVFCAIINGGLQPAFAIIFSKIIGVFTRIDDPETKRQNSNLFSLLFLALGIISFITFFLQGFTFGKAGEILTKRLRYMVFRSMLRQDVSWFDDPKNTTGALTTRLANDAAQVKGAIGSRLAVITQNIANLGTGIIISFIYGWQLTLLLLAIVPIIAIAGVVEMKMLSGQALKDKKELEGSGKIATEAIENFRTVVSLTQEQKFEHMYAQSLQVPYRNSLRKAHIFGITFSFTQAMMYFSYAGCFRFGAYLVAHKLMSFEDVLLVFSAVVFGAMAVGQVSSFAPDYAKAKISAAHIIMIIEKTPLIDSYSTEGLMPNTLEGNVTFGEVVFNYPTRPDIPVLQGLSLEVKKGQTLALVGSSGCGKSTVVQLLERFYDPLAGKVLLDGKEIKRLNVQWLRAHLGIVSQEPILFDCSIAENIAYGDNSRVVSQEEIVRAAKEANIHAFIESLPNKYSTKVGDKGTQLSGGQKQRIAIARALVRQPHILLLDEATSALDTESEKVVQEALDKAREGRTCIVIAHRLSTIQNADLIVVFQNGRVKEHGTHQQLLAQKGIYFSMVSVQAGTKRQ
measurement.notes: Inhibition of human ABCB1 expressed in mouse L5178Y cells assessed as increase in rhodamine-123 accumulation by measuring forward scatter count of cells at 2 uM pretreated for 10 mins followed by rhodamine-123 addition after 20 mins by flow cytometry (reference value: 2206)
Type: cell-based
Collected Activity values appear next to each entry.
Hey, just send me the number, nothing else.

# annotated cases, reported Activity shown
Indicate its recorded Activity; the compound in question is CC[C@H]1CN(C)[C@H]2Cc3c([nH]c4ccccc34)/C(=N/NC(N)=O)C[C@H]1[C@@H]2C(=O)OC
2312

Indicate its recorded Activity; the compound in question is CC[C@H]1CN(C)[C@H]2Cc3c([nH]c4ccccc34)/C(=N/O)C[C@H]1[C@@H]2C(=O)OC
2156

Indicate its recorded Activity; the compound in question is CC[C@H]1CN(C)[C@H]2Cc3c([nH]c4ccccc34)/C(=N/Nc3ccccc3)C[C@H]1[C@@H]2C(=O)OC
2183

Next:
Indicate its recorded Activity; the compound in question is CC[C@@H]1CN(C)[C@H]2Cc3c([nH]c4ccccc34)C(=O)C[C@H]1[C@@H]2C(=O)OC
2182

Indicate its recorded Activity; the compound in question is CC[C@H]1CN(C)[C@H]2Cc3c([nH]c4ccccc34)/C(=N/N)C[C@H]1[C@@H]2C(=O)OC
2184

Indicate its recorded Activity; the compound in question is CC[C@H]1CN(C)[C@H]2Cc3c([nH]c4ccccc34)C(=S)C[C@H]1[C@@H]2C(=O)OC
2242

Indicate its recorded Activity; the compound in question is CC[C@H]1CN(C)[C@H]2Cc3c([nH]c4ccccc34)[C@@H](O)C[C@H]1[C@@H]2C(=O)OC
2212

Indicate its recorded Activity; the compound in question is CC[C@@H]1CN(C)[C@H]2Cc3c([nH]c4ccccc34)/C(=N/Nc3ccccc3)C[C@H]1[C@@H]2C(=O)OC
2129
